For each record, write down the corresponding cleaved RNA product abundance.
Tested on: Bacillus subtilis
Experiment: cleaved RNA product abundance (RNA/gDNA barcode ratio) relative to median wild-type variant (ratio to wild type); higher = more accumulation of the downstream cleavage product
Details: experiment (reporter, strain, medium): exp 4a: truncated aprE reporter, strain BJT201 with 2% xylose (RNase J1 expressed); cleavage site: cggR-gapA (positions -7 to +36 mutated)
// no unit string in output, number only

Query "ACAGACGAAGGAGCCGCAAAGAAGTTATTAAGGTATGAATAATCGCTCAATATAAATATCTCTCACTTATTTAAA" yields cleaved RNA product abundance of 0.0909

Query "ACAGACGAAGGAGCCGCAAAGACGTTATTAAGGGATGAATAAACCCTCAATATAAATATCTCTCACTTATTTAAA" yields cleaved RNA product abundance of 0.312

Query "ACAGACGAAGGAGCCGCAAAGAAGTTATTAAGGGATGAATACTCCCTCAAAATAAATATCTCTCACTTATTTAAA" yields cleaved RNA product abundance of 0.194

Query "ACAGACGAAGGAGCCGCAAAGAAGTTATTAACTGATGAATAATCCCTCAATATAAATATCTCTCACTTATTTAAA" yields cleaved RNA product abundance of 0.118

Query "ACAGACGAAGGAGCCGCAAAGAAGTTATTAAGGGATGAATAATCCCTAAATATAAACATCTCTCACTTATTTAAA" yields cleaved RNA product abundance of 0.57

Query "ACAGACGAAGGAGCCGCAAAGAAGTTCTTAAGGCATGAATAATCCCTCAATATAAATATCTCTCACTTATTTAAA" yields cleaved RNA product abundance of 0.122

Query "ACAGACGAAGGAGCCGCAAAGAAGTTATTAAGGGATGAATAATCCCTTTATATAAATATCTCTCACTTATTTAAA" yields cleaved RNA product abundance of 0.977

Query "ACAGACGAAGGAGCCGCAACGAAGTTATTAAGGGATGAATAATCCCTCAATATAAATAACTCTCACTTATTTAAA" yields cleaved RNA product abundance of 0.827

Query "ACAGACGAAGGAGCCGCAAAGAAGTTATTAAAGGATGAATCATCCCTCAATATAAATATCTCTCACTTATTTAAA" yields cleaved RNA product abundance of 0.212

Query "ACAGACGAAGGAGCCGCAAACAAGTTATTAAGGGATGAATAATACCTCAATATAAATATCTCTCACTTATTTAAA" yields cleaved RNA product abundance of 0.12

Query "ACAGACGAAGGAGCCGCAAAGAAGTTATTAAGGGATGACCAATCCCTCAATATAAATATCTCTCACTTATTTAAA" yields cleaved RNA product abundance of 0.749

Query "ACAGACGAAGGAGCCGCAAAGAAGTTATTAAAAGATGAATAATCCCTCAATATAAATATCTCTCACTTATTTAAA" yields cleaved RNA product abundance of 0.0921

Query "ACAGACGAAGGAGCCGCAAACAAGTTATTAAGGGATGAATAATCTCTCAATATAAATATCTCTCACTTATTTAAA" yields cleaved RNA product abundance of 0.573

Query "ACAGACGAAGGAGCCGCAAAGGAGTTATTAAAGGATGAATAATCCCTCAATATAAATATCTCTCACTTATTTAAA" yields cleaved RNA product abundance of 0.108

Query "ACAGACGAAGGAGCCGCAAACAAGTTATTAAGGGATGAATAATCCGTCAATATAAATATCTCTCACTTATTTAAA" yields cleaved RNA product abundance of 0.187

// provenance: the supplement of paper PMC11780869
